Target: mouse TMEM16A mutant I516A (Mus musculus, UniProt Q8BHY3, I516A)
Construct: expressed in transfected cells; host or cells: HEK293T
Assay: Inside-out patch recording of 1PBC block, mutant I516A
Type: cell-based
Conditions: I516A; V 40 mV
reportedProperty: IC50 (µM)
Report as a plain number; the unit µM is understood.

Challenge: Reported IC50, molecule N#Cc1c(C(F)(F)F)cc(O)n2c1nc1ccccc12 [1PBC] : ____
Response given: 4.32

====

Molecular target: mouse TMEM16A mutant N546A (Mus musculus, UniProt Q8BHY3, N546A)
Construct: expressed in transfected cells; host or cells: HEK293T
Assay: Inside-out patch recording of 1PBC block, mutant N546A
Assay type: cell-based
Conditions: N546A; V -140 mV
reportedProperty: pIC50
# reply with the number alone; pIC50 is -log10 of concentration in mol/L

Challenge: Reported pIC50, compound "N#Cc1c(C(F)(F)F)cc(O)n2c1nc1ccccc12" : ____
Response given: 5.51

====

Biological target: mouse TMEM16A mutant Y514A (Mus musculus, UniProt Q8BHY3, Y514A)
Construct: expressed in transfected cells; host or cells: HEK293T
Experiment: Inside-out patch recording of 1PBC block, mutant Y514A
Format: cell-based
Conditions: -140 mV; 2 µM Ca2+
reportedProperty: IC50 (µM)
Report as a plain number; the unit µM is understood.

Challenge: Reported IC50, compound "N#Cc1c(C(F)(F)F)cc(O)n2c1nc1ccccc12" : ____
Response given: 81

====

Biological target: mouse TMEM16A mutant T518A (Mus musculus, UniProt Q8BHY3, T518A)
Construct: expressed in transfected cells; host or cells: HEK293T
Assay: Inside-out patch recording of 1PBC block, mutant T518A
Assay type: cell-based
Settings: -100 mV; 2 µM Ca2+
reportedProperty: IC50 (µM)
Report as a plain number; the unit µM is understood.

Challenge: Reported IC50, compound N#Cc1c(C(F)(F)F)cc(O)n2c1nc1ccccc12 [1PBC] : ____
Response given: 18.1

====

Biological target: mouse TMEM16A mutant T539A (Mus musculus, UniProt Q8BHY3, T539A)
Construct: expressed in transfected cells; host or cells: HEK293T
Sequence (Q8BHY3 1-960 T539A): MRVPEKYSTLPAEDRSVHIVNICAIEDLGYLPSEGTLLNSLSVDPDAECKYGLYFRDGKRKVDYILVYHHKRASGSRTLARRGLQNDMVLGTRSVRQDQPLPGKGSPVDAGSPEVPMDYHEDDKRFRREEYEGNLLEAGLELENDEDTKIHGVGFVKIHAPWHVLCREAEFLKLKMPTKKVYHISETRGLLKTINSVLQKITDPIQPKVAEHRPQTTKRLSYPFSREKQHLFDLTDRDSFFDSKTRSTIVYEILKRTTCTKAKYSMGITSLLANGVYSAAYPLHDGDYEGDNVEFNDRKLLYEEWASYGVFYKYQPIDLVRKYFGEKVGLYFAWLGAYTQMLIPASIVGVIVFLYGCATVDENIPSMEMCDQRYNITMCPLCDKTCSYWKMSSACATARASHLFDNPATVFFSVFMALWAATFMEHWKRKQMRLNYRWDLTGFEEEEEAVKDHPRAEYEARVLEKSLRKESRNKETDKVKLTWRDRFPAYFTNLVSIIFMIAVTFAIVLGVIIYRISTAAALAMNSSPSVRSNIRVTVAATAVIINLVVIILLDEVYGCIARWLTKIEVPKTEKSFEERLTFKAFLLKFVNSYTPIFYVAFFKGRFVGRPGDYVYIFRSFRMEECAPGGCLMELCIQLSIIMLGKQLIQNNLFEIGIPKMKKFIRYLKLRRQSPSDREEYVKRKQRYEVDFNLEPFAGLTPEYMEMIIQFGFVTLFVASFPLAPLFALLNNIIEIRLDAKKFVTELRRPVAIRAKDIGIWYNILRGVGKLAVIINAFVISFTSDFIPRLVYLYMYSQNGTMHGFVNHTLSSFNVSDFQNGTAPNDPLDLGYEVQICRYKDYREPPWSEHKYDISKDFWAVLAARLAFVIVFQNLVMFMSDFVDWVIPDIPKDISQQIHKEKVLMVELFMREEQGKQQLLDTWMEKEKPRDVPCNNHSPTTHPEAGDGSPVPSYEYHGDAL
Experiment: Inside-out patch recording of 1PBC block, mutant T539A
Assay type: cell-based
Conditions: 60 mV; 2 µM Ca2+
reportedProperty: pIC50
# reply with the number alone; pIC50 is -log10 of concentration in mol/L

Challenge: Reported pIC50, compound "N#Cc1c(C(F)(F)F)cc(O)n2c1nc1ccccc12" : ____
Response given: 5.01

====

Target: mouse TMEM16A mutant V511A (Mus musculus, UniProt Q8BHY3, V511A)
Construct: expressed in transfected cells; host or cells: HEK293T
Assay: Inside-out patch recording of 1PBC block, mutant V511A
Type: cell-based
Settings: V511A; V -40 mV
reportedProperty: pIC50
# reply with the number alone; pIC50 is -log10 of concentration in mol/L

Challenge: Reported pIC50, compound "N#Cc1c(C(F)(F)F)cc(O)n2c1nc1ccccc12" : ____
Response given: 4.48

====

Target: mouse TMEM16A mutant R515A (Mus musculus, UniProt Q8BHY3, R515A)
Construct: expressed in transfected cells; host or cells: HEK293T
Experiment: Inside-out patch recording of 1PBC block, mutant R515A
Assay type: cell-based
Conditions: R515A; V -100 mV
reportedProperty: pIC50
# reply with the number alone; pIC50 is -log10 of concentration in mol/L

Challenge: Reported pIC50, compound "N#Cc1c(C(F)(F)F)cc(O)n2c1nc1ccccc12" : ____
Response given: 3.77

====

Target: mouse TMEM16A mutant V543A (Mus musculus, UniProt Q8BHY3, V543A)
Construct: expressed in transfected cells; host or cells: HEK293T
Experiment: Inside-out patch recording of 1PBC block, mutant V543A
Format: cell-based
Details: V543A; V 0 mV
reportedProperty: IC50 (µM)
Report as a plain number; the unit µM is understood.

Challenge: # query: IC50 | item "N#Cc1c(C(F)(F)F)cc(O)n2c1nc1ccccc12" | system: mouse TMEM16A mutant V543A (Mus musculus, UniProt Q8BHY3, V543A)
Response given: 11.2

====

Target: mouse TMEM16A mutant T518A (Mus musculus, UniProt Q8BHY3, T518A)
Construct: expressed in transfected cells; host or cells: HEK293T
Test: Inside-out patch recording of 1PBC block, mutant T518A
Format: cell-based
Conditions: T518A; V 140 mV
Protocol: HEK293T cells (ATCC CRL-1573) were maintained in Dulbecco’s modified Eagle’s medium (DMEM; Sigma-Aldrich) supplemented with 10 U ml^−1 penicillin, 0.1 mg ml^−1 streptomycin (Sigma-Aldrich), 2 mM L-glutamine (Sigma-Aldrich), and 10% FBS (Sigma-Aldrich) in a humidified atmosphere containing 5% CO2 at 37 °C. […]
reportedProperty: IC50
A complete answer gives the number and then names the unit.

Challenge: Reported IC50, molecule N#Cc1c(C(F)(F)F)cc(O)n2c1nc1ccccc12 [1PBC] : ____
Response given: 3.08 µM

====

Target: mouse TMEM16A mutant G558P (Mus musculus, UniProt Q8BHY3, G558P)
Construct: expressed in transfected cells; host or cells: HEK293T
Assay: Inside-out patch recording of 1PBC block, mutant G558P
Assay type: cell-based
Conditions: 60 mV; 15 µM Ca2+
reportedProperty: IC50 (µM)
Report as a plain number; the unit µM is understood.

Challenge: Reported IC50, compound N#Cc1c(C(F)(F)F)cc(O)n2c1nc1ccccc12 [1PBC] : ____
Response given: 3.4

====

Biological target: mouse TMEM16A mutant R535A (Mus musculus, UniProt Q8BHY3, R535A)
Construct: expressed in transfected cells; host or cells: HEK293T
Test: Inside-out patch recording of 1PBC block, mutant R535A
Format: cell-based
Conditions: R535A; V 120 mV
reportedProperty: IC50 (µM)
Report as a plain number; the unit µM is understood.

Challenge: Reported IC50, compound N#Cc1c(C(F)(F)F)cc(O)n2c1nc1ccccc12 [1PBC] : ____
Response given: 5.53

====

Target: mouse TMEM16A mutant Y598A (Mus musculus, UniProt Q8BHY3, Y598A)
Construct: expressed in transfected cells; host or cells: HEK293T
Assay: Inside-out patch recording of 1PBC block, mutant Y598A
Format: cell-based
Settings: Y598A; V -40 mV
reportedProperty: pIC50
# reply with the number alone; pIC50 is -log10 of concentration in mol/L

Challenge: # query: pIC50 | item "N#Cc1c(C(F)(F)F)cc(O)n2c1nc1ccccc12" | system: mouse TMEM16A mutant Y598A (Mus musculus, UniProt Q8BHY3, Y598A)
Response given: 5.15
